The reported numbers originate from patent US12195427B2.

Target: MASP-2 CCP2-SP (Homo sapiens (Human))
Assay: MASP-2 co-crystallization, X-ray crystallography and structure analysis (H-bonds, van der Waals contacts)
Details: Table A5-2 pharmacophore distance, S3/S4 region
Text: This example illustrates the preparation of recombinant MASP-2 protein, based on UniProt O00187, human mannan-binding lectin serine protease 2. Expression constructs for human MASP-2 CCP2-SP and CCP2-SP-6HIS were generated for recombinant expression in E. coli cells. […]
Provide the recorded d(O2,N2) for the entries that follow.
One number for each entry.

Past entries and their recorded results:
{"compound": "CC(=O)Nc1ccc(CCNC(CCc2ccccc2)C(=O)NC(C)C(=O)NCc2ccc(C(=N)N)cc2)cc1.Cl.Cl (centres unmarked) [1345_1]", "d(O2,N2)": 2.90}
{"compound": "Cc1nc(N)ccc1CNC(=O)[C@H](C)NC(=O)[C@H]1C[C@@H](Cc2ccccc2)CCN1", "d(O2,N2)": 2.69}
{"compound": "C[C@H](NC(=O)[C@H]1C[C@@H](c2ccccc2)CCN1)C(=O)NCc1cc(Cl)ccc1O.Cl [1078_10]", "d(O2,N2)": 2.74}
{"compound": "C[C@H](NC(=O)[C@H](N)CCCc1ccccc1)C(=O)NCc1ccc(C(=N)N)cc1.Cl.Cl [1042_3]", "d(O2,N2)": 4.11}
{"compound": "C[C@H](NC(=O)[C@H]1C[C@@H](c2ccccc2)CCN1)C(=O)NCc1cc(Cl)ccc1O.Cl [1078_16]", "d(O2,N2)": 2.90}

I have 3 compounds here; please give me d(O2,N2) for each one.
1. Cc1nc(N)ccc1CNC(=O)[C@H](C)NC(=O)[C@H]1C[C@H](Cc2cccc(Cl)c2)CN1.Cl.Cl [1328_1]
2. C[C@H](NC(=O)[C@H](N)CCc1ccccc1)C(=O)NCc1ccc(C(=N)N)cc1
3. C[C@H](NC(=O)[C@H](N)CCc1cc(Cl)cc(Cl)c1)C(=O)NCc1ccc(C(=N)N)cc1

Result:
[2.79, 2.78, 2.67]

----------
target: MASP-2 CCP2-SP (Homo sapiens (Human), UniProt O00187); test: MASP-2 co-crystallization, X-ray crystallography and structure analysis (H-bonds, van der Waals contacts); conditions: Table A7-1; between pharmacophore elements of the bound compound
Sequence (O00187 445-686): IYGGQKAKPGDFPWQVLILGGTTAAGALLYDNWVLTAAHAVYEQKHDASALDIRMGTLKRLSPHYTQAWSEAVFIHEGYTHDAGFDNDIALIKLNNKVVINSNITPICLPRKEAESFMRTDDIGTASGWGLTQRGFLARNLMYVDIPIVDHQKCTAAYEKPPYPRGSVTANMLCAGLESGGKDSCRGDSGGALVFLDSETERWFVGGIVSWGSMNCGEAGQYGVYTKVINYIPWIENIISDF
Sequence (O00187 364-432 partner): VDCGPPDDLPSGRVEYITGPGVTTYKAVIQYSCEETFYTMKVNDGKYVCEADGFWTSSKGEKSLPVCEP
The label is 1 (yes) for Pharmacophore torsion angle a(O1, H4, O2, CA1) below -80 and 0 (no) for Pharmacophore torsion angle a(O1, H4, O2, CA1) equal to or exceeding -80.

Examples from the recorded data:
{"compound": "CC(=O)Nc1ccc(CCNC(CCc2ccccc2)C(=O)NC(C)C(=O)NCc2ccc(C(=N)N)cc2)cc1.Cl.Cl (stereo not drawn) [1345_2]", "target.entity": "MASP-2 CCP2-SP (Homo sapiens (Human), UniProt O00187)", "class.assignment": "0 (no)"}
{"compound": "Cc1nc(N)ccc1CNC(=O)[C@H](C)NC(=O)[C@H]1C[C@H](Cc2ccc(-c3ccccc3)cc2)CN1", "target.entity": "MASP-2 CCP2-SP (Homo sapiens (Human), UniProt O00187)", "class.assignment": "1 (yes)"}
{"compound": "Cc1nc(N)ccc1CNC(=O)C(C)NC(=O)[C@H]1C[C@H](c2cccc(-c3ccccc3)c2)CN1 (stereo in doubt)", "target.entity": "MASP-2 CCP2-SP (Homo sapiens (Human), UniProt O00187)", "class.assignment": "1 (yes)"}

Ask: Quick check: Pharmacophore torsion angle a(O1, H4, O2, CA1) of C[C@H](NC(=O)[C@H]1C[C@@H](c2ccccc2)CCN1)C(=O)NCc1cc(Cl)ccc1O.Cl [1078_16] under -80?
Result: 0 (no)

Ask: Quick check: Pharmacophore torsion angle a(O1, H4, O2, CA1) of `CNC(=O)c1ccc2c(=O)n(Cc3ccccc3)c(=O)n(CC(=O)NCc3ccc(C(=N)N)cc3)c2c1` under -80?
Result: 1 (yes)

Ask: Quick check: Pharmacophore torsion angle a(O1, H4, O2, CA1) of Cc1nc(N)ccc1CNC(=O)[C@H](C)NC(=O)[C@H]1C[C@@H](c2cccc3ccccc23)CCN1.Cl.Cl [1297_2] under -80?
Result: 1 (yes)
